system: L1210 leukemia ip in BDF1 mice, survival T/C; experiment: NCI In Vivo Anticancer Drug Screen. Data for tumor model L1210 Leukemia (intraperitoneal) in B6D2F1 (BDF1) mice; conditions: endpoint: mean survival time; dose: 200.0 mg/kg/injection; schedule: Q01DX001 (ip); vehicle: Klucel (hydroxypropylcellulose) (HPC)
Toxic doses and inconclusive results are not listed. Rule as the data show it: active = T/C of 150% or more; inactive = T/C below 125%.
Hi! Could you answer with just one of these? true for active, false for inactive

Worked examples, 4 molecules total:
1) COn1c(/C=N/NC(N)=S)ccc1CN1C(=O)c2ccccc2C1=O; false
2) CC(C)=CCc1cc(OC(=O)OCc2ccccc2)c2ccccc2c1O; false
3) CC1(C)N=C(N)N=C(N)N1c1ccc(CC(C(=O)Nc2ccc(S(=O)(=O)F)cc2)c2cccc3ccccc23)cc1 (stereo not given); false
4) O=NN(CCCl)C(=O)NC1c2cc(Cl)ccc2-c2c(Cl)cc(Cl)cc21 (stereo not given); true

*Q* Per the records of this test, what outcome belongs to COc1ccccc1OS(=O)(=O)c1ccc(COc2ccc([N+](=O)[O-])cc2Cl)cc1 ?
*A* false

*Q* Per the records of this test, what outcome belongs to O=C(Nc1cccc(CSc2nc3nc[nH]c(=O)c3[nH]2)c1)Oc1ccccc1 ?
*A* false

*Q* Per the records of this test, what outcome belongs to COc1ccc(-n2c(=O)c(N=Nc3ccccc3OC)c(O)n(-c3ccccc3C)c2=S)cc1 ?
*A* false

*Q* Per the records of this test, what outcome belongs to CCOC(=O)c1cnc(C(Cl)(Cl)Cl)[nH]c1=O ?
*A* false

*Q* Per the records of this test, what outcome belongs to C=C(C)C1CC=C(C=O)CC1 (stereo not given) ?
*A* false

*Q* Per the records of this test, what outcome belongs to N#CC1CC2c3ccccc3C1([N+](=O)[O-])c1ccccc12 (stereo not given) ?
*A* false

---

tested on: L1210 leukemia ip in BDF1 mice, survival T/C; assay: NCI In Vivo Anticancer Drug Screen. Data for tumor model L1210 Leukemia (intraperitoneal) in B6D2F1 (BDF1) mice; conditions: endpoint: mean survival time; dose: 400.0 mg/kg/injection; schedule: Q04DX003 (ip); vehicle: saline with Tween-80; higher = longer survival
Inconclusive results and toxic doses are left out.
property: T/C

1. CCOC(=O)c1nc(SC)n(Cc2ccccc2)c1C(=O)OCC; 99 % of control
2. O=C1N/C(=N\OCc2ccccc2)CC(NOCc2ccccc2)N1 (configuration not stated); 97 % of control
3. O=C(O)c1cccc2cccc(C3SCCS3)c12; 90 % of control
4. O=C(O)C12CC3CC1C2C3; 86 % of control
5. COc1cc(CCCc2ccc(O)c(=O)cc2)cc(OC)c1OC; 94 % of control

*Q* Can you share its T/C? I mean this compound: COC(=O)C1=C(C)NC(=O)NC1c1ccccc1 (configuration not stated)
*A* 100 % of control

*Q* Can you share its T/C? I mean this compound: Oc1c(CN2CCOCC2)cc(CN2CCOCC2)cc1CN1CCOCC1
*A* 98 % of control

---

tested on: L1210 leukemia ip in BDF1 mice, survival T/C; test: NCI In Vivo Anticancer Drug Screen. Data for tumor model L1210 Leukemia (intraperitoneal) in B6D2F1 (BDF1) mice; settings: endpoint: mean survival time; dose: 200.0 mg/kg/injection; schedule: Q04DX003 (ip); vehicle: Klucel (hydroxypropylcellulose) (HPC); higher = longer survival
Inconclusive results and toxic doses are left out.
Documented T/C across a set of compounds

1. Cc1ccc(Cl)cc1NC(=O)c1ccccc1C(=O)O; 101 % of control
2. CC(C)(C)C(O)C1CCC(C(O)C(C)(C)C)S1(=O)=O (configuration not stated); 98 % of control
3. CSc1nc(Cl)nc(SC)n1; 96 % of control

*Q* Can you share its T/C? I mean this compound: O=c1ccc2c(COc3ccc(Cl)cc3Cl)c3ccc(O)cc3oc-2c1
*A* 99 % of control

---

Documented T/C across a set of compounds
tested on: L1210 leukemia ip in BDF1 mice, survival T/C; assay: NCI In Vivo Anticancer Drug Screen. Data for tumor model L1210 Leukemia (intraperitoneal) in B6D2F1 (BDF1) mice; conditions: endpoint: mean survival time; dose: 200.0 mg/kg/injection; schedule: Q01DX009 (ip); vehicle: acetone; higher = longer survival
Inconclusive results and toxic doses are left out.

# annotated cases, reported T/C shown
1. O=C(O)CC12CCCCC1CCCC2 (stereo unspecified); 100 % of control
2. N#[N+]c1c([O-])[nH]c(=S)[nH]c1=O; 96 % of control
3. CC1(CO)COCOC1; 104 % of control

*Q* Can you share its T/C? I mean this compound: CC(OC(=O)c1ccccc1)C(N)=S (stereo unspecified)
*A* 95 % of control

*Q* Can you share its T/C? I mean this compound: COc1cccc(OC)c1-c1oc2ccccc2c(=O)c1O
*A* 95 % of control

*Q* Can you share its T/C? I mean this compound: COc1ccc(/C=N/n2c(=O)[nH]nc(C)c2=O)c(OC)c1OC
*A* 93 % of control

---

test system: L1210 leukemia ip in BDF1 mice, survival T/C; experiment: NCI In Vivo Anticancer Drug Screen. Data for tumor model L1210 Leukemia (intraperitoneal) in B6D2F1 (BDF1) mice; conditions: endpoint: mean survival time; dose: 100.0 mg/kg/injection; schedule: Q04DX003 (ip); vehicle: Klucel (hydroxypropylcellulose) (HPC); higher = longer survival
Toxic doses and inconclusive results are not listed.
property: T/C

1. O=C(/C=C/c1ccccc1)NC(=S)NCc1ccco1; 95 % of control

*Q* Request: T/C, test system L1210 leukemia ip in BDF1 mice, survival T/C, entry O=C(c1ccccc1Br)C1C(c2ccccc2)N1C1CCCCC1 (centres undefined)
*A* 102 % of control

*Q* Request: T/C, test system L1210 leukemia ip in BDF1 mice, survival T/C, entry Cc1ccc(C)n1-c1ccccc1C(=O)O
*A* 93 % of control

*Q* Request: T/C, test system L1210 leukemia ip in BDF1 mice, survival T/C, entry NC(=O)C1CCCC12NC(=O)NC2=O (centres undefined)
*A* 100 % of control

*Q* Request: T/C, test system L1210 leukemia ip in BDF1 mice, survival T/C, entry CC(=O)Oc1c(C2CCCCC2)cc([N+](=O)[O-])cc1[N+](=O)[O-]
*A* 94 % of control

*Q* Request: T/C, test system L1210 leukemia ip in BDF1 mice, survival T/C, entry CCCC[n+]1[nH]oc(=O)c1C(=O)[O-]
*A* 98 % of control

*Q* Request: T/C, test system L1210 leukemia ip in BDF1 mice, survival T/C, entry CCCCCCCCCCCCCCCC(=O)Nc1ccc(O)cc1
*A* 97 % of control

---

test system: L1210 leukemia ip in BDF1 mice, survival T/C; assay: NCI In Vivo Anticancer Drug Screen. Data for tumor model L1210 Leukemia (intraperitoneal) in B6D2F1 (BDF1) mice; details: endpoint: mean survival time; dose: 400.0 mg/kg/injection; schedule: Q01DX001 (ip); vehicle: carboxymethylcellulose (CMC); higher = longer survival
Inconclusive results and toxic doses are left out.
property: T/C

1) O=C1OC(=O)C2C1C1C=CC2C1(c1ccccc1)c1ccccc1 (stereo unspecified); 96 % of control

*Q* Request: T/C, test system L1210 leukemia ip in BDF1 mice, survival T/C, entry C1=CC2OC1c1ccccc12
*A* 97 % of control

*Q* Request: T/C, test system L1210 leukemia ip in BDF1 mice, survival T/C, entry CCCNC(=O)NCCN(CC)c1ccccc1
*A* 96 % of control

*Q* Request: T/C, test system L1210 leukemia ip in BDF1 mice, survival T/C, entry CCCCCCCCOC(=O)Nc1ccc(S(=O)(=O)NC2CCCCC2)cc1
*A* 94 % of control

*Q* Request: T/C, test system L1210 leukemia ip in BDF1 mice, survival T/C, entry O=C1C=CC(=O)N1Cc1ccc[n+](CCC[n+]2cccc(CN3C(=O)C=CC3=O)c2)c1
*A* 96 % of control

*Q* Request: T/C, test system L1210 leukemia ip in BDF1 mice, survival T/C, entry Nc1nc(-c2ccccc2)c2ccccc2n1
*A* 104 % of control

*Q* Request: T/C, test system L1210 leukemia ip in BDF1 mice, survival T/C, entry O=[N+]([O-])c1c(Cl)cc(Cl)c([N+](=O)[O-])c1-c1ccccc1
*A* 107 % of control

*Q* Request: T/C, test system L1210 leukemia ip in BDF1 mice, survival T/C, entry CC(C)(CO)N=Cc1ccc(O)cc1O
*A* 91 % of control

*Q* Request: T/C, test system L1210 leukemia ip in BDF1 mice, survival T/C, entry CCCCCCCCCCCCCCCCS(=O)(=O)N/N=C/c1ccc2c(c1)OCO2
*A* 104 % of control

*Q* Request: T/C, test system L1210 leukemia ip in BDF1 mice, survival T/C, entry CCC1CN1P1(=O)OCC(C)(N)CO1 (stereo unspecified)
*A* 101 % of control

*Q* Request: T/C, test system L1210 leukemia ip in BDF1 mice, survival T/C, entry CN(C)Cc1cc(C(F)(F)F)ccc1C(O)(c1ccccc1)c1ccccc1
*A* 98 % of control
